biological target: human neutrophil elastase (HNE) (Homo sapiens, UniProt P08246 30-267); assay: enzyme inhibition; DQ gelatin substrate; competitive; ELISA: PBS pH 7.4, 5 mM MgCl2, 10 mM KCl, 0.01% Tween 20, 20 min (temperature not stated); inhibition: 50 mM Tris pH 7.5, 150 mM NaCl, 10 mM KCl, 5 mM MgCl2, 0.02% Tween 20, 37 C; conditions: protein: commercial; label: biotin (ELISA); predicted: 1 G4, 3 hairpin loops (not tested)
Sequence (P08246 30-267): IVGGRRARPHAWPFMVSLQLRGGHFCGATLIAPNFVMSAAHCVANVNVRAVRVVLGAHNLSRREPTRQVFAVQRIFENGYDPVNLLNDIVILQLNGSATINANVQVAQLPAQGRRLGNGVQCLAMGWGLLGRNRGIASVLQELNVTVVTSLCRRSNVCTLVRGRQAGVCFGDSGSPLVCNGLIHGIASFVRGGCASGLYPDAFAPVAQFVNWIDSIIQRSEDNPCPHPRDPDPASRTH
Parameter: Ki

[[record]]
binder = "aptamer E6 (ssDNA) DNA: CATGCTTCCCCAGGGAGATGAGGACGGGCGTGGGGATGGGTATGGTGCAACTCCCGAGGAACATGCGTCGCAAAC"
parameter = "Ki"
measurement = "52 nM"


Where do the numbers come from? From paper PMC10359491.
